TARGET_DESC: T1, CD3 epsilon homodimer protein (UniProt P07766 23-126)
T1 construct: also called CD3 (CD3 epsilon)
TEST_DETAILS: SPR, antibody over immobilised CD3e homodimer;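 also: SPR at 25 °C with CD3 epsilon homodimer amine-coupled to a CM4 sensor chip and antibody flowed over as analyte in HBS-EP+ running buffer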
KD ratio to GLS3000 values for the binders below.
EXPERIMENTAL_READOUT: KD ratio to GLS3000

BINDER	RECORDED_NUMBER
CE115HA000/GLS3000 T92S (antibody, IgG1, name in Kabat numbering, V domains shown, one-arm IgG1) VH: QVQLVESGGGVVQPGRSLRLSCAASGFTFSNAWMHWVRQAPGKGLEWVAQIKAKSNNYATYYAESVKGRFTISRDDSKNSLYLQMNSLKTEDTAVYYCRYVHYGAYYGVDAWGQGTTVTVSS VL: DIVMTQSPLSLPVTPGEPASISCRSSQSLVHSNRNTYLHWYQQKPGQAPRLLIYKVSNRFSGVPDRFSGSGSGTDFTLKISRVEAEDVGVYYCGQGSQVPYTFGQGTKLEIK	0.81
CE115HA000/GLS3000 N30G (antibody, IgG1, name in Kabat numbering, V domains shown, one-arm IgG1) VH: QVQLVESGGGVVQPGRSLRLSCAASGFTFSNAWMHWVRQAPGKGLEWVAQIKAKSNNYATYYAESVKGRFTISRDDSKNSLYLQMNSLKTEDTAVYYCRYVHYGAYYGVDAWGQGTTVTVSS VL: DIVMTQSPLSLPVTPGEPASISCRSSQSLVHSNRGTYLHWYQQKPGQAPRLLIYKVSNRFSGVPDRFSGSGSGTDFTLKISRVEAEDVGVYYCGQGTQVPYTFGQGTKLEIK	2.1
CE115HA000/GLS3000 P95E (antibody, IgG1, name in Kabat numbering, V domains shown, one-arm IgG1) VH: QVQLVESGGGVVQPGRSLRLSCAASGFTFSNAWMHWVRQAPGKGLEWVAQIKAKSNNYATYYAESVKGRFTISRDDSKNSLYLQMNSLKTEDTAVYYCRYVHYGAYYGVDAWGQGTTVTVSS VL: DIVMTQSPLSLPVTPGEPASISCRSSQSLVHSNRNTYLHWYQQKPGQAPRLLIYKVSNRFSGVPDRFSGSGSGTDFTLKISRVEAEDVGVYYCGQGTQVEYTFGQGTKLEIK	1.01
